Every entry's value here was drawn from ChEMBL document CHEMBL1833943.

assay.name: Metabolic stability in CD1 mouse liver microsomes at 1 uM measured as compound remaining after 1 hr by LC/MS/MS analysis
Assay type: ADME, Microsome
reported.conditions: read-out: Stability
recorded.metric: remaining at 1 h, 1 µM (%)
Report as a plain number; the unit % is understood.

Prompt: Note down remaining at 1 h, 1 µM recorded for "O=[N+]([O-])c1cn2c(n1)OC[C@@H](OCC#Cc1ccc(-c3ccc(OC(F)(F)F)cc3)nc1)C2"
Completion: 90

Prompt: Note down remaining at 1 h, 1 µM recorded for "O=[N+]([O-])c1cn2c(n1)OC[C@@H](OC/C=C/c1ccc(OC(F)(F)F)cc1)C2"
Completion: 71

Prompt: Note down remaining at 1 h, 1 µM recorded for "O=[N+]([O-])c1cn2c(n1)OC[C@@H](OCCCc1ccc(-c3ccc(C(F)(F)F)cc3)cc1)C2"
Completion: 81

Prompt: Note down remaining at 1 h, 1 µM recorded for "O=[N+]([O-])c1cn2c(n1)OC[C@@H](OCC#Cc1ccc(-c3ccc(C(F)(F)F)nc3)cc1)C2"
Completion: 90

Prompt: Note down remaining at 1 h, 1 µM recorded for "O=[N+]([O-])c1cn2c(n1)OC[C@@H](OCC#Cc1ccc(-c3ccc(OC(F)(F)F)cc3)cn1)C2"
Completion: 86

Prompt: Note down remaining at 1 h, 1 µM recorded for "O=[N+]([O-])c1cn2c(n1)OC[C@@H](Oc1ncc(-c3ccc(OC(F)(F)F)cc3)cn1)C2"
Completion: 95

Prompt: Note down remaining at 1 h, 1 µM recorded for CC(O[C@@H]1COc2nc([N+](=O)[O-])cn2C1)c1ccc(OC(F)(F)F)cc1 (mixture of isomers)
Completion: 75

Prompt: Note down remaining at 1 h, 1 µM recorded for "O=[N+]([O-])c1cn2c(n1)OC[C@@H](Oc1ccc(-c3ccc(OC(F)(F)F)cc3)cn1)C2"
Completion: 93

###

assay.name: Half life in plasma of CD1 mouse at 40 mg/kg, po
Type: ADME, organism-based
Set-up: dose 40 mg/kg, route oral
Binary label based on half-life with cut-off 8 h: below gives met, not below gives not met.

Prompt: Hello, is half-life of the following molecule strictly smaller than 8 h? "O=[N+]([O-])c1cn2c(n1)OC[C@@H](Oc1ccc(-c3ccc(OC(F)(F)F)cc3)cc1)C2"
Completion: not met

Prompt: Hello, is half-life of the following molecule strictly smaller than 8 h? "O=[N+]([O-])c1cn2c(n1)OC[C@@H](OCC#Cc1cccc(-c3ccc(OC(F)(F)F)cc3)c1)C2"
Completion: not met

Prompt: Hello, is half-life of the following molecule strictly smaller than 8 h? "O=[N+]([O-])c1cn2c(n1)OC[C@@H](OCCCC#Cc1ccc(OC(F)(F)F)cc1)C2"
Completion: met

Prompt: Hello, is half-life of the following molecule strictly smaller than 8 h? "O=[N+]([O-])c1cn2c(n1)OC[C@@H](OCCCc1ccc(-c3ccc(OC(F)(F)F)cc3)cc1)C2"
Completion: met

Prompt: Hello, is half-life of the following molecule strictly smaller than 8 h? "O=[N+]([O-])c1cn2c(n1)OC[C@@H](OCC#Cc1ccc(-c3ccc(OC(F)(F)F)cc3)cc1)C2"
Completion: met

###

Tested on: Mycobacterium tuberculosis
assay.name: Antituberculosis activity against Mycobacterium tuberculosis H37Rv under anaerobic conditions by fluorescence based low-oxygen-recovery assay
Type: functional
Binary label based on MIC with cut-off 4 µM: below gives TRUE, not below gives FALSE.

Prompt: Hello, is MIC of the following molecule strictly smaller than 4 µM? "O=[N+]([O-])c1cn2c(n1)OC[C@@H](OCCOc1ccc(-c3ccc(OC(F)(F)F)cc3)cc1)C2"
Completion: TRUE

Prompt: Hello, is MIC of the following molecule strictly smaller than 4 µM? "O=[N+]([O-])c1cn2c(n1)OC[C@@H](Oc1ccc(-c3ccc(OC(F)(F)F)cc3)cc1)C2"
Completion: TRUE

Prompt: Hello, is MIC of the following molecule strictly smaller than 4 µM? "O=[N+]([O-])c1cn2c(n1)OC[C@@H](Oc1ccc(-c3ccc(F)cc3)cc1)C2"
Completion: TRUE

Prompt: Hello, is MIC of the following molecule strictly smaller than 4 µM? "O=[N+]([O-])c1cn2c(n1)OC[C@@H](OC/C=C/c1ccc(-c3ccc(OC(F)F)cc3)cc1)C2"
Completion: FALSE

Prompt: Hello, is MIC of the following molecule strictly smaller than 4 µM? "O=[N+]([O-])c1cn2c(n1)OC[C@@H](OCCCc1ccc(-c3ccc(C(F)(F)F)cc3)cc1)C2"
Completion: FALSE

Prompt: Hello, is MIC of the following molecule strictly smaller than 4 µM? "O=[N+]([O-])c1cn2c(n1)OC[C@@H](OCCOc1ccc(OCc3ccccc3)cc1)C2"
Completion: FALSE

Prompt: Hello, is MIC of the following molecule strictly smaller than 4 µM? "O=[N+]([O-])c1cn2c(n1)OC[C@@H](Oc1cccc(-c3ccc(F)cc3)n1)C2"
Completion: FALSE

Prompt: Hello, is MIC of the following molecule strictly smaller than 4 µM? "O=[N+]([O-])c1cn2c(n1)OC[C@@H](OCC#Cc1ccc(OCc3ccccc3)cc1)C2"
Completion: TRUE

Prompt: Hello, is MIC of the following molecule strictly smaller than 4 µM? "O=[N+]([O-])c1cn2c(n1)OC[C@@H](OC/C=C/c1ccc(-c3ccc(C(F)(F)F)cc3)cc1)C2"
Completion: FALSE

Prompt: Hello, is MIC of the following molecule strictly smaller than 4 µM? "O=[N+]([O-])c1cn2c(n1)OC[C@@H](Oc1cc(-c3ccc(F)cc3)ccn1)C2"
Completion: FALSE

Prompt: Hello, is MIC of the following molecule strictly smaller than 4 µM? "O=[N+]([O-])c1cn2c(n1)OC[C@@H](Oc1ccc(-c3ccc(C(F)(F)F)cc3)nc1)C2"
Completion: TRUE

Prompt: Hello, is MIC of the following molecule strictly smaller than 4 µM? "O=[N+]([O-])c1cn2c(n1)OC[C@@H](OCC#Cc1cccc(-c3ccc(OC(F)F)cc3)c1)C2"
Completion: TRUE

Prompt: Hello, is MIC of the following molecule strictly smaller than 4 µM? "O=[N+]([O-])c1cn2c(n1)OC[C@@H](OCCOc1ccc(C(F)(F)F)nc1)C2"
Completion: FALSE

Prompt: Hello, is MIC of the following molecule strictly smaller than 4 µM? "O=[N+]([O-])c1cn2c(n1)OC[C@@H](OCCCC#Cc1ccc(OC(F)(F)F)cc1)C2"
Completion: TRUE

Prompt: Hello, is MIC of the following molecule strictly smaller than 4 µM? "O=[N+]([O-])c1cn2c(n1)OC[C@@H](Oc1ccnc(-c3ccc(F)cc3)c1)C2"
Completion: FALSE

Prompt: Hello, is MIC of the following molecule strictly smaller than 4 µM? "O=[N+]([O-])c1cn2c(n1)OC[C@@H](Oc1ccc(-c3ccc(OC(F)(F)F)cc3)nc1)C2"
Completion: TRUE

Prompt: Hello, is MIC of the following molecule strictly smaller than 4 µM? "O=[N+]([O-])c1cn2c(n1)OC[C@@H](OCC#Cc1ccc(-c3ccc(C(F)(F)F)nc3)cn1)C2"
Completion: FALSE

Prompt: Hello, is MIC of the following molecule strictly smaller than 4 µM? "O=[N+]([O-])c1cn2c(n1)OC[C@@H](OCCCC#Cc1ccc(-c3ccc(C(F)(F)F)cc3)cc1)C2"
Completion: FALSE
